test: Human ADME study: PK of ribociclib and LEQ803 in plasma and urine (validated bioanalytical assay); format: in vivo; details: human, plasma, po, 600 mg, human plasma, bioanalytical assay, single oral 600 mg, N=6; read-out: AUCinf, arithmetic mean (CV %)
What AUC(0-inf) was measured for each of the following?
Reply with just the number (in ng·h/mL).

Query :: Give me measured AUC(0-inf), please, for this compound: CNC(=O)c1cc2cnc(Nc3ccc(N4CCNCC4)cn3)nc2n1C1CCCC1 [M4 (LEQ803)]
Result :: 2320

Query :: Give me measured AUC(0-inf), please, for this compound: CN(C)C(=O)c1cc2cnc(Nc3ccc(N4CCNCC4)cn3)nc2n1C1CCCC1 [ribociclib, Ribociclib]
Result :: 8700

----------
assay: Rat pharmacokinetic studies: plasma PK of ribociclib after single i.v. or oral dose; type: in vivo; conditions: male, rat m (3), po, 9.8 mg base/kg
assay.metric: bioavailability (%)
Reply with just the number (in %).

Query :: Give me measured bioavailability, please, for this compound: `CN(C)C(=O)c1cc2cnc(Nc3ccc(N4CCNCC4)cn3)nc2n1C1CCCC1`
Result :: 37

----------
test: In vitro plasma protein binding (ultrafiltration), human; type: in vitro ADME; conditions: plasma, 10-10 000 ng/mL
assay.metric: fraction unbound at 1 h
Lab note: jot the number down without any unit.

Query :: Give me measured fraction unbound at 1 h, please, for this molecule: `CN(C)C(=O)c1cc2cnc(Nc3ccc(N4CCNCC4)cn3)nc2n1C1CCCC1`
Result :: 0.3

----------
assay: Rat pharmacokinetic studies: plasma PK of ribociclib after single i.v. or oral dose; type: in vivo; conditions: male, Sprague Dawley, iv, 2 mg/kg, rat m (2), i.v., 2.0 mg base/kg, read-out: Vss
assay.metric: Vd (L/kg)
Reply with just the number (in L/kg).

Query :: Give me measured Vd, please, for this compound: `CN(C)C(=O)c1cc2cnc(Nc3ccc(N4CCNCC4)cn3)nc2n1C1CCCC1`
Result :: 9.9

----------
What half-life was measured for each of the following?
assay: Human ADME study: PK of ribociclib and LEQ803 in plasma and urine (validated bioanalytical assay); assay type: in vivo; settings: human, plasma, po, 600 mg, human plasma, bioanalytical assay, single oral 600 mg, N=6; read-out: t½, arithmetic mean (CV %) (converted)
Reply with just the number (in h).

Query :: Give me measured half-life, please, for this compound: CNC(=O)c1cc2cnc(Nc3ccc(N4CCNCC4)cn3)nc2n1C1CCCC1 [M4 (LEQ803)]
Result :: 91.8

Query :: Give me measured half-life, please, for this compound: CN(C)C(=O)c1cc2cnc(Nc3ccc(N4CCNCC4)cn3)nc2n1C1CCCC1 [ribociclib, Ribociclib]
Result :: 54.7

----------
test: Rat pharmacokinetic studies: plasma PK of ribociclib after single i.v. or oral dose; format: in vivo; conditions: female, rat, po, 51.2 mg base/kg
assay.metric: AUC(0-t) (ng·h/mL)
Reply with just the number (in ng·h/mL).

Query :: Give me measured AUC(0-t), please, for this molecule: `CN(C)C(=O)c1cc2cnc(Nc3ccc(N4CCNCC4)cn3)nc2n1C1CCCC1`
Result :: 3100

----------
assay: Dog pharmacokinetic studies: plasma PK of ribociclib after single i.v. or oral dose; format: in vivo; settings: male, iv, dog m (3), i.v., 0.2 mg base/kg, read-out: t½ (converted)
assay.metric: half-life (min)
Reply with just the number (in min).

Query :: Give me measured half-life, please, for this compound: CN(C)C(=O)c1cc2cnc(Nc3ccc(N4CCNCC4)cn3)nc2n1C1CCCC1 [ribociclib, Ribociclib]
Result :: 1090
